Source of measurements: patent US20260242478A1

For each of the binders below, state its IC50.
target.or.system: T1, PSMA Fab
T1 construct: also called 006 PSMA Fab; anti-PSMA Fab
assay.name: competition ELISA; peptide 0-100 µM with 0.3 nM PSMA Fab on plate-captured biotinylated PSMA
Where no end group is shown, it is not given here.
Respond with the figure and its unit, in that order.

# IC50 lookup, item LMKWCTPRWMCAAE (cysteine pairing not given here; also: biotinylated, site not given here, PSMA mask peptide) [Peptide-179]
7.71 µM

# IC50 lookup, item FEKLCVPKWMCEGI [Peptide-220]
1.57 µM

# IC50 lookup, item LEKLCKPAWMCVNF [Peptide-238]
1.55 µM

# IC50 lookup, item DVKLCKPEWMCYGL [Peptide-236]
0.38 µM

# IC50 lookup, item LEKTCIPTWMCVGF [Peptide-234]
2.08 µM

# IC50 lookup, item FVPLCKPAWMCSFV [Peptide-218]
2.85 µM

# IC50 lookup, item EGIRCTPIWMCEGF [Peptide-224]
1.88 µM

# IC50 lookup, item LEKLCIPAWMCEWL [Peptide-215]
2.94 µM

# IC50 lookup, item WEKLCTPAWMCVGF [Peptide-214]
3.54 µM
